# assay.method.text: qHTS assay to identify small molecule antagonists of the progesterone receptor (PR) signaling pathway - cell viability counter screen (AID 1346798); also: nearly all actives have a fitted effect of over 50% in size
# measurement.context: PR-UAS-bla HEK293T viability, CellTiter-Glo luminescence, 16 h; series mostly up to 92.4 µM
Inconclusive results are not listed. Calls of active or inactive are those of the source. Calls follow the shape of the dose curve; as a rule, active = well fitted cell-killing curve with a large enough effect in the repeat runs; inconclusive = weak or mixed curves, or effect the other way; inactive = no such curve, though single readings can be large or run the other way.
Permitted responses: active, inactive

Answered cases to consult:
- compound: "CC(CCc1ccc2c(c1)OCO2)NN (stereo not drawn)"
  class.label: "inactive"
- compound: "Oc1cc(O)c(Cl)cc1Cl"
  class.label: "inactive"
- compound: "CC[C@@H]([C@H](C)O)n1ncn(-c2ccc(N3CCN(c4ccc(OC[C@@H]5CO[C@@](Cn6cncn6)(c6ccc(F)cc6F)C5)cc4)CC3)cc2)c1=O"
  class.label: "active"

Could you kindly confirm the outcome this assay logged for CCOC(=N)CC(=O)OCC ?
active

Would you mind telling me which call this test gave COc1cc2c(N3CCN(C(=O)Nc4ccc(OC(C)C)cc4)CC3)ncnc2cc1OCCCN1CCCCC1 ?
inactive

For this compound, state the assay outcome: CCCCN(CCCC)C(=S)SSC(=S)N(CCCC)CCCC
inactive

Tell me the assay call for CCn1nc(C)c2c1C(=O)NCC(c1ccc(O)cc1)=N2 please.
inactive

# outcome recorded in this test, key = O=C(C(=O)c1ccccc1)c1ccccc1
inactive
